# Organism: Homo sapiens
# test: Selectivity ratio of IC50 for wild type LRRK2 (unknown origin) to IC50 for LRRK2 G2019S mutant (unknown origin)
Label y for high-side Ratio IC50 (at or above 3) and n for low-side Ratio IC50 (below it).

Data request: Form field: Ratio IC50 at least 3? Entry: "FC(F)(F)c1cccc(Sc2ccc3ncc(-c4cccs4)n3c2)c1"
Data returned: y

Data request: Reported Ratio IC50 reaches at least 3 for "Fc1cccc(Sc2ccc3nnc(-c4cncs4)n3n2)c1" ?
Data returned: n

Data request: Textbook exercise: given the entry "Clc1cccc(Sc2ccc3nnc(-c4cncs4)n3n2)c1" , state whether its Ratio IC50 is greater than or equal to 3.
Data returned: y

Data request: Tell me whether Ratio IC50 is at least 3 here: "c1cnc(Sc2ccc3nnc(-c4cncs4)n3n2)nc1"
Data returned: n

Data request: For this molecule, is measured Ratio IC50 3 or higher? "FC(F)(F)c1cccc(Sc2ccc3nnc(-c4ccncc4)n3n2)c1"
Data returned: y

Data request: Could you please find out whether "FC(F)(F)c1cccc(Sc2ccc3nnc(-c4cccc(Cl)c4)n3n2)c1" has Ratio IC50 that meets 3 or exceeds it?
Data returned: y

Data request: Is Ratio IC50 at least 3? Consider "COC(=O)[C@@H](C)Sc1ccc2nnc(-c3cccs3)n2n1"
Data returned: n

Data request: Decide: Ratio IC50 of "FC(F)(F)c1cccc(Sc2ccc3nnc(-c4ccccn4)n3n2)c1" >= 3?
Data returned: y

Data request: Given the entry "FC(F)(F)c1cccc(Sc2ccc3nnc(-c4cncs4)n3n2)c1" , answer whether its Ratio IC50 meets or surpasses 3.
Data returned: y

Data request: Has "FC(F)(F)c1cccc(Sc2ccc3nnc(C4CCOCC4)n3n2)c1" a recorded Ratio IC50 greater than or equal to 3?
Data returned: n

Data request: Check the entry "FC(F)(F)c1cccc(Sc2ccc3nnc(-c4cccs4)n3n2)c1" : does Ratio IC50 equal or exceed 3?
Data returned: y
